# Test system: HCC-2998 colon
# measurementNotes: NCI-60 one-dose screen, 48 h
# conditions: 10 µM
The panel holds about 83,000 compounds, 20% with a hit somewhere; the sample as a whole holds those more often. Active and inactive are the calls of the source. Rule for the calls: active = growth percent below 10; inactive = the rest.
Outcomes: label 1 = active, label 0 = inactive

molecule	classAssignment
Cc1cc(Cl)ccc1Nc1nc(C(F)(F)F)ccc1C(=O)N/N=C/c1cccc(O)c1	label 0
CCCCC1(O)CCCCC1	label 0
CCCCCC(=O)O[C@]1(C(C)=O)CCC2C3CCC4=CC(=O)CC[C@]4(C)C3CC[C@@]21C (some centres undefined)	label 0
CN(C)CCCOc1cccc(NC2=C(Cl)C(=O)C(Nc3cccc(OCCCN(C)C)c3)=C(Cl)C2=O)c1	label 0
CN(C)c1ncnc2c1nnn2C1OC(CO)C(O)C1O (centres undefined)	label 1
Cc1ccc(NC(=S)NNC(=S)Nc2ccc(C)cc2)cc1	label 0
Cc1ccc(-c2c3c(N)nc(-c4cccnc4)nc3nc3c2c(C)nn3-c2ccccc2)cc1	label 0
COc1cc2c3c(n([C@H]4CCOC4)c(=O)c2cc1OC)-c1cc2c(cc1C3=O)OCO2	label 0
O=C(Cn1cc(CO)nn1)Nc1nc2ccccc2s1	label 0
CN1CCN(CCC(=O)Nc2cccc(-n3cc(-c4ccncc4)c(-c4ccc(Cl)c(O)c4)n3)c2)CC1	label 0
COc1cc(C2CC(c3ccccc3)=NN2C(C)=O)cc(OC)c1OC (centres undefined)	label 0
O=C1c2ccccc2C(=O)N1CCCCNc1ccccc1	label 0
O=C(CN(C1CCCCC1)C1CCCCC1)Nc1ccc(S(=O)(=O)c2ccc(NC(=O)CN(C3CCCCC3)C3CCCCC3)cc2)cc1	label 1
CC(=O)C1CCC2C3CC=C4CC(SC(=N)N)CCC4(C)C3CCC12C (centres undefined)	label 1
CN(C)CCOc1ccc(-c2nc3sccn3c2-c2ccnc(S(C)(=O)=O)n2)cc1	label 0
COc1ccccc1/C=N\N/C(N)=N\N=C\c1ccccc1OC	label 1
C[C@]12CCC3c4ccc(O)cc4C[C@@H](CCCCCCCCCS(=O)CCCC(F)(F)C(F)(F)F)C3C1CC[C@@H]2O (some centres undefined)	label 0
Cc1c(C(N)=O)sc2c1c(=O)n(Cc1ccccc1)c1nnc(-c3ccc(Br)cc3)n21	label 0
C=C/C(C)=C/C[C@]1(C)[C@H](C)[C@@H](OC(=O)CCC)[C@H](O)[C@@]23C(=C[C@H](OC)C[C@@H]12)[C@@H](OC(=O)CCC)O[C@H]3OC(C)=O	label 1
Cc1c[nH]c(=O)n(Cc2nnc(CCC(=O)c3nc4ccccc4[nH]3)o2)c1=O	label 1
COc1ccc(-c2csc(NC(=O)c3ccc(Cc4n[nH]c(=O)c5cccnc45)cc3)n2)cc1	label 0
Cc1ccc(S(=O)(=O)N(C)CCCCCC(=O)O)cc1	label 0
C=CCn1c(SCC(=O)Nc2ccc(C(=O)/C=C/c3ccc(OC)cc3)cc2)nnc1-c1ccc(OC)c(OC)c1	label 0
O=S(=O)(O)c1cccc(Nc2ccc3ccccc3c2)c1	label 0
CC(C)(C)OC(=O)CN1CCc2c(sc3ncnc(N/N=C/c4cccc5ccccc45)c23)C1	label 0
C=C(NC(=O)C(=C)NC(=O)c1csc(C2=NC3c4csc(n4)C4NC(=O)c5csc(n5)C(C(C)(O)C(C)O)NC(=O)C5CSC(=N5)C(=CC)NC(=O)C(C(C)O)NC(=O)c5csc(n5)C3(CC2)NC(=O)C(C)NC(=O)C(=C)NC(=O)C(C)NC(=O)C(C(C)CC)NC2C=Cc3c(C(C)O)cc(nc3C2O)C(=O)OC4C)n1)C(N)=O (centres undefined)	label 0
CCN(CC)CCOc1ccc2c(c1O)C(=O)c1ccccc1C2=O	label 0
CC(C)(C)c1ccc(S(=O)(=O)N[C@H]2CC[C@H]3[C@@H]4CCc5cc(O)c([N+](=O)[O-])cc5[C@H]4CC[C@]23C)cc1	label 0
COc1ccc(-c2nn(-c3cccc(Cl)c3)cc2-c2nc(N)[nH]c(=O)c2C#N)cc1	label 0
O=C(CSc1nnc(-c2cccnc2SCc2ccccc2)o1)Nc1nc(Cl)cc(Cl)n1	label 0
O=C1NC(=O)c2c(CCCSc3nc4ccccc4c(=O)n3CCc3ccccc3)cccc21	label 0
O=C(Nc1cccc2c1CCCC2)c1cc2ccccc2cc1O	label 0
CC[C@@H]1NC(=O)[C@H]([C@H](O)[C@H](C)C/C=C/c2ccc(CN3C(=O)CCCC3=O)cc2)N(C)C(=O)[C@H](C(C)C)N(C)C(=O)[C@H](CC(C)C)N(C)C(=O)[C@H](CC(C)C)N(C)C(=O)[C@@H](C)NC(=O)[C@H](C)NC(=O)[C@H](CC(C)C)N(C)C(=O)[C@H](C(C)C)NC(=O)[C@H](CC(C)C)N(C)C(=O)CN(C)C1=O	label 0
COc1ccc(/C=C2\CCCC3C2=Nc2ccccc2NC3c2ccc(OC)cc2)cc1 (centres undefined)	label 0

====

# Tested on: A549/ATCC NSCLC
# measurementNotes: NCI-60 one-dose screen, 48 h
# conditions: 10 µM
This is part of a sample that, as a whole, favours compounds with a hit. Of some 83,000 tested, about 20% had one in any assay. Active and inactive are the calls of the source. How the source made its calls: active means growth percent below 10; inactive means the rest.
Outcome codes: active, inactive

> print(dat)
                                    compound      studytarget  classassignment
 1  N#CC1=C(N)Oc2cc(N)ccc2C1c1cccnc1 (stereo not given)  A549/ATCC NSCLC         inactive
 2  Nc1ccc(/C=N/Nc2ccnc3c(O)cccc23)c2cccnc12  A549/ATCC NSCLC         inactive
 3  CCc1ccc(C2=NN(c3ccc(S(C)(=O)=O)cc3)C(=O)CC2)cc1  A549/ATCC NSCLC         inactive
 4     O=[N+]([O-])c1ccc(NCSc2ccc(Cl)cc2)cc1  A549/ATCC NSCLC         inactive
 5  COc1ccc(/C=c2\sc3n(c2=O)C(c2cc(OC)c(OC)c(OC)c2)C=C(c2ccc(OC)c(OC)c2)N=3)cc1OC (stereo not given)  A549/ATCC NSCLC         inactive
 6  CC(CN(C)C)Oc1ccccc1NC1=C(Cl)C(=O)C(Nc2ccccc2OC(C)CN(C)C)=C(Cl)C1=O (stereo not given)  A549/ATCC NSCLC           active
 7  Cc1ccc(C(SCC(N)C(=O)O)(c2ccc(C)cc2)c2ccc(C)cc2)cc1 (stereo not given)  A549/ATCC NSCLC         inactive
 8      Clc1ccc2c(c1)C(N1CCNCC1)=Nc1ccccc1O2  A549/ATCC NSCLC         inactive
 9  CCOC(=O)c1cc(C(=O)c2cc(OC)c(OC)c(OC)c2)n2c1ccc1c3cccnc3ccc12  A549/ATCC NSCLC         inactive
10  O=C1/C=C/[C@@H](O)[C@@H]2C[C@@H](O)C[C@H]2/C=C/CCC[C@H](CCc2ccc(C(F)(F)F)cc2)O1  A549/ATCC NSCLC           active

====

# System: ACHN renal
# measurementNotes: NCI-60 one-dose screen, 48 h (100 = growth as untreated, 0 = no growth, -100 = all killed)
# conditions: 10 µM
# Method: Growth inhibition of the ACHN human tumor cell line is measured as a screen for anti-cancer activity. Cells are grown in 96 well plates and exposed to the test compound for 48 hours. Compounds are tested at a single concentration, which is 10^-5 M for most compounds. The reported endpoint is percent growth (GI% or GIPRCNT), where numbers from 0 - 100% represent growth inhibition, and numbers from -100% - 0 represent cell death. For example, a value of 40 represents 60% growth inhibition. […]
The panel holds about 83,000 compounds, 20% with a hit somewhere; the sample as a whole holds those more often.
Measured growth accompanies every entry in the list below.
quantityName: growth (%)

compound	measuredNumber
CNS(=O)(=O)Oc1ccc(-c2ccc3occc3c2)cc1	99.5
S=C(NCc1ccccc1)NCc1ccccc1	105
Cc1ccc(C)c(COc2cc(NC(=O)c3ccc4c(c3)OCO4)ccc2N(C)S(C)(=O)=O)c1	29.3
O=C(Nc1ccc(NS(=O)(=O)c2ccc(F)cc2)cc1)C12CC3CC(CC(C3)C1)C2	102
O=C1c2ccccc2C(=O)N1CCCCNc1ccccc1	104
CCOC(=O)c1cc(C(=O)c2cc(OC)c(OC)c(OC)c2)n2c1ccc1c3cccnc3ccc12	76.2
N#Cc1c(-c2ccc(Cl)cc2)cc(-c2cc(O)ccc2O)nc1N	8.35
C=CCN(CC=C)C(=O)[C@H](CC)[C@@H]1CC[C@@H](C)[C@@H]([C@H](C)[C@@H](O)[C@@H](C)C(=O)[C@H](CC)C2O[C@]3(C=CC(=O)[C@]4(CC[C@@](C)([C@H]5CC[C@](O)(CC)[C@H](C)O5)O4)O3)[C@H](C)C[C@@H]2C)O1 (stereo partly specified)	5.47
Cc1ccc(NCCN(C)CC(C)O)c2c(=O)c3ccccc3sc12 (stereo unspecified)	29.5
O[C@@H]1CO[C@H]2[C@@H]1OC[C@@H]2O	98.9
Clc1ccc2c(c1)C(N1CCNCC1)=Nc1ccccc1O2	46
Oc1ccc(/C=N/N=C2c3ccccc3-c3ccccc32)c(O)c1	70.1
CCCc1cn(CC(=O)Nc2nc3ccccc3s2)nn1	101
C/C=C/CSC(C)(C)C(=O)NC	108
C#CCOc1c(OC)cc(C(=O)/C(C)=C/c2cccc(N=[N+]=[N-])c2)cc1OC	32.4
O=C(Cn1cc(CO)nn1)Nc1nc2ccccc2s1	104
CS(=O)(=O)c1nccc(-c2c(-c3cccc(OCc4ccc(F)cc4)c3)nc3sccn23)n1	94.9
CCOC(=O)c1cc(C(=O)c2cc(OC)cc(OC)c2)n2nc(C)ccc12	60.5
O=[N+]([O-])c1cc(Cl)cc(Cl)c1O	99.4
CC(=O)Oc1cc(OC(C)=O)c2ccccc2c1OC(C)=O	84.9
O=C1/C=C/[C@@H](O)[C@@H]2C[C@@H](O)C[C@H]2/C=C/CCC[C@@H](C(F)(F)F)O1	98.3

Reference for the values: PubChem BioAssay (NCI)
